Reference source for all entries: patent US9546196B2

- Test system: LNCaP cell culture
- Assay type: cell-based
Ends that are not written are not given here.
readout: Cytotoxicity

Consider the worked cases shown below.
Prompt: State the recorded Cytotoxicity for this entry: FCKAARRRRRRRR-NH2 [FA5-8R]
Completion: Yes

Prompt: State the recorded Cytotoxicity for this entry: FCKARRRRRRRR [Peptide FA4-8R]
Completion: Yes

Prompt: State the recorded Cytotoxicity for this entry: FAKAFRRRRRRRR-NH2 [Peptide FF5-C2A-8R]
Completion: Yes

Prompt: State the recorded Cytotoxicity for this entry: TFCKAFPRRRRRRRR-NH2 [Peptide TP7-8R]
Completion: Yes

Prompt: State the recorded Cytotoxicity for this entry: FMKAFRRRRRRRR-NH2 [Peptide FF5-C2M-8R]
Completion: Yes

Prompt: State the recorded Cytotoxicity for this entry: KAFPFHRRRRRRRR [Peptide KH6-8R]
Completion: No

Others:
Prompt: State the recorded Cytotoxicity for this entry: FCKAFPRRRRRRRR-NH2 [Peptide FP6-8R]
Completion: Yes

Prompt: State the recorded Cytotoxicity for this entry: Ac-TFCKAFPFHIIRRRRRRRR-OH [Peptide A-8R]
Completion: Yes

###

- Tested on: LNCaP cell culture
- Assay type: cell-based
Ends that are not written are not given here.
readout: Cytotoxicity

Prompt: State the recorded Cytotoxicity for this entry: TFCKAFRRRRRRRR-NH2 [Peptide TF6-8R]
Completion: Yes

Prompt: State the recorded Cytotoxicity for this entry: CKAFRRRRRRRR-NH2 [Peptide CF4-8R]
Completion: Yes

Prompt: State the recorded Cytotoxicity for this entry: KAFPRRRRRRRR [Peptide KP4-8R]
Completion: No

Prompt: State the recorded Cytotoxicity for this entry: PFHIIRRRRRRRR-NH2 [Peptide PI5-8R]
Completion: No
